Test system: LK-2
assay procedure: relative viability (nuclei count vs DMSO), 5 days (fraction); higher = more cells survive
setup conditions: first compound 2 µM
property label: relative viability

compound	reported measurement
Cc1csc(=NC2CCCCC2)n1/N=C/c1ccc(O)c(O)c1O [MIM1] + O=C(CCCCCCC(=O)Nc1ccccc1)NO [Vorinostat] (partner 1 µM)	0.304
Cc1csc(=NC2CCCCC2)n1/N=C/c1ccc(O)c(O)c1O [MIM1] + Nc1nc2[nH]cc(CCc3ccc(C(=O)N[C@@H](CCC(=O)O)C(=O)O)cc3)c2c(=O)[nH]1 [Pemetrexed] (partner 0.2 µM)	0.197
CN1CCN(CCOc2cc(OC3CCOCC3)c3c(Nc4c(Cl)ccc5c4OCO5)ncnc3c2)CC1 [Saracatinib] + Nc1nc2[nH]cc(CCc3ccc(C(=O)N[C@@H](CCC(=O)O)C(=O)O)cc3)c2c(=O)[nH]1 [Pemetrexed] (partner 0.2 µM)	0.161
CN1CCN(CCOc2cc(OC3CCOCC3)c3c(Nc4c(Cl)ccc5c4OCO5)ncnc3c2)CC1 [Saracatinib] + O=C(CCCCCCC(=O)Nc1ccccc1)NO [Vorinostat] (partner 1 µM)	0.234
CN1CCN(CCOc2cc(OC3CCOCC3)c3c(Nc4c(Cl)ccc5c4OCO5)ncnc3c2)CC1 [Saracatinib] + CCNC(=O)c1noc(-c2cc(C(C)C)c(O)cc2O)c1-c1ccc(CN2CCOCC2)cc1 [Luminespib] (partner 0.01 µM)	0.186

---

System: NCI-H1944
assay procedure: relative viability (nuclei count vs DMSO), 5 days (fraction); higher = more cells survive
setup conditions: first compound 0.03162 µM
Hi! Just check whether relative viability is below 1. Below gives T, equal or above gives F.

compound	discrete label
Cc1cn(-c2cc(NC(=O)c3ccc(C)c(Nc4nccc(-c5cccnc5)n4)c3)cc(C(F)(F)F)c2)cn1 [Nilotinib] + C[C@]1(O)C[C@@H](c2nc(-c3ccc4ccc(-c5ccccc5)nc4c3)c3c(N)nccn32)C1 [Linsitinib] (partner 1 µM)	F
Cc1cn(-c2cc(NC(=O)c3ccc(C)c(Nc4nccc(-c5cccnc5)n4)c3)cc(C(F)(F)F)c2)cn1 [Nilotinib] + CC(=O)Nc1cccc(-n2c(=O)n(C3CC3)c(=O)c3c(Nc4ccc(I)cc4F)n(C)c(=O)c(C)c32)c1 [Trametinib] (partner 0.02 µM)	T
Cc1cn(-c2cc(NC(=O)c3ccc(C)c(Nc4nccc(-c5cccnc5)n4)c3)cc(C(F)(F)F)c2)cn1 [Nilotinib] + Cc1nc(Nc2ncc(C(=O)Nc3c(C)cccc3Cl)s2)cc(N2CCN(CCO)CC2)n1 [Dasatinib] (partner 0.075 µM)	T
Cc1cn(-c2cc(NC(=O)c3ccc(C)c(Nc4nccc(-c5cccnc5)n4)c3)cc(C(F)(F)F)c2)cn1 [Nilotinib] + O=C(c1cc(Cc2n[nH]c(=O)c3ccccc23)ccc1F)N1CCN(C(=O)C2CC2)CC1 [Olaparib] (partner 8 µM)	T
Cc1cn(-c2cc(NC(=O)c3ccc(C)c(Nc4nccc(-c5cccnc5)n4)c3)cc(C(F)(F)F)c2)cn1 [Nilotinib] + CC1(C)CCC(c2ccc(Cl)cc2)=C(CN2CCN(c3ccc(C(=O)NS(=O)(=O)c4ccc(N[C@H](CCN5CCOCC5)CSc5ccccc5)c(S(=O)(=O)C(F)(F)F)c4)cc3)CC2)C1 [Navitoclax] (partner 0.5 µM)	F

---

System: LC-2-ad
assay procedure: relative viability (nuclei count vs DMSO), 5 days (fraction); higher = more cells survive
setup conditions: first compound 6.325 µM
Examples of compounds with documented relative viability follow.

compound	relative viability
Cc1csc(=NC2CCCCC2)n1/N=C/c1ccc(O)c(O)c1O [MIM1] + NC(=O)Nc1cc(-c2cccc(F)c2)sc1C(=O)N[C@H]1CCCNC1 [AZD7762] (partner 0.2 µM)	0.389
Cc1csc(=NC2CCCCC2)n1/N=C/c1ccc(O)c(O)c1O [MIM1] + Cc1cc(Nc2cc(N3CCN(C)CC3)nc(Sc3ccc(NC(=O)C4CC4)cc3)n2)n[nH]1 [Tozasertib] (partner 0.1 µM)	0.364
Cc1csc(=NC2CCCCC2)n1/N=C/c1ccc(O)c(O)c1O [MIM1] + CS(=O)(=O)N1CCN(Cc2cc3nc(-c4cccc5[nH]ncc45)nc(N4CCOCC4)c3s2)CC1 [Pictilisib] (partner 1 µM)	0.406
Cc1csc(=NC2CCCCC2)n1/N=C/c1ccc(O)c(O)c1O [MIM1] + CC(C)C[C@H](NC(=O)[C@H](Cc1ccccc1)NC(=O)c1cnccn1)B(O)O [Bortezomib] (partner 0.002 µM)	0.383
Cc1csc(=NC2CCCCC2)n1/N=C/c1ccc(O)c(O)c1O [MIM1] + O=C(CCCCCCC(=O)Nc1ccccc1)NO [Vorinostat] (partner 1 µM)	0.267
Cc1csc(=NC2CCCCC2)n1/N=C/c1ccc(O)c(O)c1O [MIM1] + Cc1nc(Nc2ncc(C(=O)Nc3c(C)cccc3Cl)s2)cc(N2CCN(CCO)CC2)n1 [Dasatinib] (partner 0.075 µM)	0.411

---

Tested on: NCI-H1650
assay procedure: relative viability (nuclei count vs DMSO), 5 days (fraction); higher = more cells survive
setup conditions: first compound 0.06325 µM

compound	relative viability
CCNC(=O)c1noc(-c2cc(C(C)C)c(O)cc2O)c1-c1ccc(CN2CCOCC2)cc1 [Luminespib] + Cc1nc(Nc2ncc(C(=O)Nc3c(C)cccc3Cl)s2)cc(N2CCN(CCO)CC2)n1 [Dasatinib] (partner 0.075 µM)	0.192
CCNC(=O)c1noc(-c2cc(C(C)C)c(O)cc2O)c1-c1ccc(CN2CCOCC2)cc1 [Luminespib] + CC1(C)CCC(c2ccc(Cl)cc2)=C(CN2CCN(c3ccc(C(=O)NS(=O)(=O)c4ccc(N[C@H](CCN5CCOCC5)CSc5ccccc5)c(S(=O)(=O)C(F)(F)F)c4)cc3)CC2)C1 [Navitoclax] (partner 0.5 µM)	0.159
CCNC(=O)c1noc(-c2cc(C(C)C)c(O)cc2O)c1-c1ccc(CN2CCOCC2)cc1 [Luminespib] + O=C(CCCCCCC(=O)Nc1ccccc1)NO [Vorinostat] (partner 1 µM)	0.139
CCNC(=O)c1noc(-c2cc(C(C)C)c(O)cc2O)c1-c1ccc(CN2CCOCC2)cc1 [Luminespib] + Nc1nc2[nH]cc(CCc3ccc(C(=O)N[C@@H](CCC(=O)O)C(=O)O)cc3)c2c(=O)[nH]1 [Pemetrexed] (partner 0.2 µM)	0.152
CCNC(=O)c1noc(-c2cc(C(C)C)c(O)cc2O)c1-c1ccc(CN2CCOCC2)cc1 [Luminespib] + CC(C)C[C@H](NC(=O)[C@H](Cc1ccccc1)NC(=O)c1cnccn1)B(O)O [Bortezomib] (partner 0.002 µM)	0.222
CCNC(=O)c1noc(-c2cc(C(C)C)c(O)cc2O)c1-c1ccc(CN2CCOCC2)cc1 [Luminespib] + N=C(N)NC(=N)NCCc1ccccc1 [Phenformin] (partner 250 µM)	0.15
CCNC(=O)c1noc(-c2cc(C(C)C)c(O)cc2O)c1-c1ccc(CN2CCOCC2)cc1 [Luminespib] + CS(=O)(=O)N1CCN(Cc2cc3nc(-c4cccc5[nH]ncc45)nc(N4CCOCC4)c3s2)CC1 [Pictilisib] (partner 1 µM)	0.129

---

Tested on: SW 900
assay procedure: relative viability (nuclei count vs DMSO), 5 days (fraction); higher = more cells survive
setup conditions: first compound 0.02 µM
Recorded relative viability, one value per entry.

compound	tested target	relative viability
CCNC(=O)c1noc(-c2cc(C(C)C)c(O)cc2O)c1-c1ccc(CN2CCOCC2)cc1 [Luminespib] + COc1cccc2cc(-c3nc([C@H]4CC[C@H](C(=O)O)CC4)n4ncnc(N)c34)[nH]c12 [OSI-027] (partner 0.5 µM)	SW 900	0.131
CN1CCN(CCOc2cc(OC3CCOCC3)c3c(Nc4c(Cl)ccc5c4OCO5)ncnc3c2)CC1 [Saracatinib] + Cc1nc(Nc2ncc(C(=O)Nc3c(C)cccc3Cl)s2)cc(N2CCN(CCO)CC2)n1 [Dasatinib] (partner 0.075 µM)	SW 900	0.559
CCNC(=O)c1noc(-c2cc(C(C)C)c(O)cc2O)c1-c1ccc(CN2CCOCC2)cc1 [Luminespib] + CC(=O)c1c(C)c2cnc(Nc3ccc(N4CCNCC4)cn3)nc2n(C2CCCC2)c1=O [Palbociclib] (partner 0.5 µM)	SW 900	0.549

---

# key: entry, value: relative viability
Test system: NCI-H647
assay procedure: relative viability (nuclei count vs DMSO), 5 days (fraction); higher = more cells survive
setup conditions: first compound 8 µM

molecule	relative viability
Nc1cccc2c1CN(C1CCC(=O)NC1=O)C2=O (centres undefined) [Lenalidomide] + CCNC(=O)c1noc(-c2cc(C(C)C)c(O)cc2O)c1-c1ccc(CN2CCOCC2)cc1 [Luminespib] (partner 0.01 µM)	0.26
Nc1cccc2c1CN(C1CCC(=O)NC1=O)C2=O (centres undefined) [Lenalidomide] + C[C@]1(O)C[C@@H](c2nc(-c3ccc4ccc(-c5ccccc5)nc4c3)c3c(N)nccn32)C1 [Linsitinib] (partner 1 µM)	0.932
Nc1cccc2c1CN(C1CCC(=O)NC1=O)C2=O (centres undefined) [Lenalidomide] + Nc1nc2[nH]cc(CCc3ccc(C(=O)N[C@@H](CCC(=O)O)C(=O)O)cc3)c2c(=O)[nH]1 [Pemetrexed] (partner 0.2 µM)	0.182
Nc1cccc2c1CN(C1CCC(=O)NC1=O)C2=O (centres undefined) [Lenalidomide] + COc1cc2c(Oc3ccc(NC(=O)C4(C(=O)Nc5ccc(F)cc5)CC4)cc3F)ccnc2cc1OCCCN1CCOCC1 [Foretinib] (partner 0.25 µM)	1.11
